# experiment summary: chemical genetic growth profiling, strain panel (AID 1159580);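 also: tested at 20 µM; growth read once vehicle control cultures reached saturation at 30 °C; 1 = growth at the plate median or of vehicle wells; lower values mean less growth of the strain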
# test context: S. cerevisiae deletion strains, growth OD, locus YLR258W, strain gsy2, active compounds read low
Screen size: about 5,500 compounds; about 2,000 (36%) were called active. Not shown: some 18% with an inconclusive outcome. The list shows a part of the results.

- compound: "c1ccc([C@H]2CN3CCSC3=N2)cc1"
  normalized growth: 1.02
- compound: "C[C@]12CCC(=O)C=C1CCC1C2C(=O)C[C@@]2(C)C1CC[C@]2(O)C(=O)CO (some centres not stated)"
  normalized growth: 1.01
- compound: "C#C[C@]1(O)CCC2C3CCC4=Cc5oncc5C[C@]4(C)C3CC[C@@]21C (some centres not stated)"
  normalized growth: 0.955
- compound: "NC1C[C@H]1c1ccccc1 (some centres not stated)"
  normalized growth: 0.981
- compound: "COc1cc(/C=C/C(=O)N2CCC=CC2=O)cc(OC)c1OC"
  normalized growth: 1.03
- compound: "COc1ccc([C@H]2COc3c(ccc(O)c3OC)C2)c(OC)c1O"
  normalized growth: 0.992
- compound: "O=C(OC[C@H]1O[C@H](OC(=O)c2cc(O)c(O)c(OC(=O)c3cc(O)c(O)c(O)c3)c2)[C@H](OC(=O)c2cc(O)c(O)c(OC(=O)c3cc(O)c(O)c(O)c3)c2)[C@@H](OC(=O)c2cc(O)c(O)c(OC(=O)c3cc(O)c(O)c(O)c3)c2)[C@@H]1OC(=O)c1cc(O)c(O)c(OC(=O)c2cc(O)c(O)c(O)c2)c1)c1cc(O)c(O)c(OC(=O)c2cc(O)c(O)c(O)c2)c1"
  normalized growth: 0.807
- compound: "NC(=O)NO"
  normalized growth: 1.02
- compound: "CC[C@H]1CN2CCc3cc(OC)c(OC)cc3C2C[C@@H]1CC1NCCc2cc(OC)c(OC)cc21 (some centres not stated)"
  normalized growth: 0.985
- compound: "C=C(C)[C@@H]1CC[C@]2(CO)CC[C@]3(C)[C@H](CCC4[C@@]5(C)CC[C@H](O)C(C)(C)C5CC[C@]43C)C12 (some centres not stated)"
  normalized growth: 0.996
- compound: "COc1c2c(cc3c1OCO3)C13C=C[C@H](OC)CC1N(C2)CC3O (some centres not stated)"
  normalized growth: 0.981
- compound: "CCc1cccc2c3c([nH]c12)C(CC)(CC(=O)O)OCC3 (configuration not stated)"
  normalized growth: 0.994
- compound: "COc1cc(O)cc(OC)c1OC"
  normalized growth: 0.996
- compound: "CC1=NN(c2ccccc2)C(=O)C1"
  normalized growth: 0.957
- compound: "O=C(O)[C@H](O)[C@@](O)(Cc1ccc(O)cc1)C(=O)O"
  normalized growth: 1.01
- compound: "Cc1c(NC(=O)c2cccnc2)c(=O)n(-c2ccccc2)n1C"
  normalized growth: 0.997
- compound: "NCCc1cc(O)c(O)cc1O"
  normalized growth: 0.964
- compound: "COc1ccc(C2C(=O)c3ccccc3C2=O)cc1"
  normalized growth: 1.01
- compound: "CC(=O)NO"
  normalized growth: 0.964
- compound: "CC(=O)Oc1cccc2c1C(=O)c1c(OC(C)=O)cc(C(=O)O)cc1C2=O"
  normalized growth: 0.909
- compound: "CC(NCCC(c1ccccc1)c1ccccc1)c1ccccc1 (configuration not stated)"
  normalized growth: 0.974
- compound: "NCCNCCNCCN"
  normalized growth: 1.01

* * *

# experiment summary: chemical genetic growth profiling, strain panel (AID 1159580);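 also: tested at 20 µM; growth read once vehicle control cultures reached saturation at 30 °C; 1 = growth at the plate median or of vehicle wells; lower values mean less growth of the strain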
# test context: S. cerevisiae deletion strains, growth OD, locus YNL233W, strain BNI4
The whole screen tested about 5,500 compounds, of which about 2,000 (36%) were called active. Another 18% or so got no clear call; they are omitted. Cut-off read from the data, not from the text of the source: active = normalized growth mostly below about 0.91 (no sharp cut-off); inconclusive = no clear call, values can overlap the other calls; inactive = mostly above about 0.92. The list shows a part of the results.
Labels: active, inactive

- compound: "Cc1cc(=O)n(-c2ccccc2)n1C"
  answer label: "inactive"
- compound: "COC(=O)C[C@H]1C(C)(C)[C@@H](O)[C@@H]2CC3=C4C=C(OC)O[C@@H](c5ccoc5)[C@]4(C)CCC3[C@@]1(C)C2=O (stereo not given in full)"
  answer label: "inactive"
- compound: "Cc1onc(-c2ccccc2)c1C(=O)NC1C(=O)N2[C@@H]1SC(C)(C)[C@@H]2C(=O)O (stereo not given in full)"
  answer label: "inactive"
- compound: "NC[C@H]1O[C@H](O[C@H]2[C@H](O)[C@@H](O[C@H]3O[C@H](CO)[C@@H](O)[C@H](N)[C@H]3O)[C@H](N)C[C@@H]2N)[C@H](N)C[C@@H]1O"
  answer label: "inactive"
- compound: "NC(N)=NC(N)=Nc1ccccc1"
  answer label: "inactive"
- compound: "CC(=O)Oc1cc2c(c(C)c1OC(C)=O)CC1OC13C2(C)CCC1(C)C2CC(C)(C(=O)O)CCC2(C)CCC13C (stereo not given)"
  answer label: "inactive"
- compound: "COc1cc2cc3c4cc(OC)c(OC)cc4cc[n+]3c(C)c2cc1OC"
  answer label: "inactive"
- compound: "CCOc1cccc(C(=O)c2ccc(O)c(O)c2O)c1"
  answer label: "active"
- compound: "NC(=O)N1c2ccccc2C=Cc2ccccc21"
  answer label: "inactive"
- compound: "CC(=O)Oc1cccc2c1C(=O)c1c(OC(C)=O)cc(C(=O)O)cc1C2=O"
  answer label: "inactive"
- compound: "CC(NCCC(c1ccccc1)c1ccccc1)c1ccccc1 (stereo not given)"
  answer label: "inactive"
- compound: "CC(=O)Oc1cccc(C(=O)O)c1OC(C)=O"
  answer label: "inactive"
- compound: "Cc1ccc(N(CC2=NCCN2)c2cccc(O)c2)cc1"
  answer label: "inactive"
- compound: "COc1ccc(C(=O)c2ccc(O)cc2)c(O)c1O"
  answer label: "inactive"
- compound: "COc1ccc(C(=O)O)c(O)c1OC"
  answer label: "inactive"
- compound: "OCCN1CCN(CCCN2c3ccccc3Sc3ccc(C(F)(F)F)cc32)CC1"
  answer label: "inactive"
- compound: "COC(=O)[C@]1(C)CC[C@]2(C)CC[C@]3(C)C4=CC=C5C(=CC(=O)C(O)=C5C)[C@]4(C)CC[C@@]3(C)[C@@H]2C1"
  answer label: "active"
- compound: "CC1(C)S[C@@H]2[C@H](NC(=O)Cc3ccccc3)C(=O)N2[C@H]1C(=O)O"
  answer label: "inactive"
- compound: "Cc1onc(-c2c(Cl)cccc2Cl)c1C(=O)N[C@@H]1C(=O)N2[C@@H]1SC(C)(C)[C@@H]2C(=O)O"
  answer label: "inactive"
- compound: "Cc1onc(-c2ccccc2Cl)c1C(=O)N[C@@H]1C(=O)N2[C@@H]1SC(C)(C)[C@@H]2C(=O)O"
  answer label: "inactive"

* * *

In this section, each of the compounds is paired with its reported normalized growth.
# experiment summary: chemical genetic growth profiling, strain panel (AID 1159580);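 also: tested at 20 µM; growth read once vehicle control cultures reached saturation at 30 °C; 1 = growth at the plate median or of vehicle wells; lower values mean less growth of the strain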
# test context: S. cerevisiae deletion strains, growth OD, strain TSCII, active compounds read low
Among all 5,500 compounds or so, about 2,000 (36%) were called active. Roughly 18% stayed inconclusive and do not appear here. The list shows a part of the results.

- compound: "O=c1c(-c2ccccc2)c(O)c2cccc3c4c(n1c23)CCCC4"
  normalized growth: 0.918
- compound: "O=c1c(-c2ccccc2)c(O)c2cccc3c4ccccc4n1c23"
  normalized growth: 0.112
- compound: "COc1cc(N2C(=O)C=CC2=O)cc(OC)c1OC"
  normalized growth: 0.933
- compound: "O=C(Nc1cc2c(s1)-c1cc(Cl)ccc1SC2)Oc1ccccc1"
  normalized growth: 1
- compound: "O=C(c1cc2c(s1)-c1ccccc1CC2)N1CCN(Cc2ccccc2)CC1"
  normalized growth: 1
- compound: "CN1c2ccccc2C(C)(C)C12C=Cc1cc(O)ccc1O2 (stereo not drawn)"
  normalized growth: 0.978
- compound: "CS/C(Nc1cccc(C(F)(F)F)c1)=C(/C#N)S(=O)(=O)c1ccc(Cl)cc1"
  normalized growth: 0.942
- compound: "Cc1ccc(OCc2n[nH]c(=S)n2Cc2ccccc2)c2c1CCC2"
  normalized growth: 0.991
- compound: "COc1ccc(C2CC(c3ccc(C)cc3C)=NN2C(C)=O)cc1 (stereo not drawn)"
  normalized growth: 0.995
- compound: "FC(F)(F)c1cc(-c2ccc(Cl)cc2)n[nH]1"
  normalized growth: 0.911
- compound: "S=C(Nc1ccc(Cl)cc1)Nc1ccc(Cl)cc1"
  normalized growth: 0.906
- compound: "O=C(NNC(=S)Nc1ccc(Cl)cc1)c1ncc(C(F)(F)F)cc1Cl"
  normalized growth: 0.968
- compound: "C/C(=N/NC(=O)c1ccc(C(C)(C)C)cc1)c1ccccc1O"
  normalized growth: 0.981

* * *

# experiment summary: chemical genetic growth profiling, strain panel (AID 1159580);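 also: tested at 20 µM; growth read once vehicle control cultures reached saturation at 30 °C; 1 = growth at the plate median or of vehicle wells; lower values mean less growth of the strain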
# test context: S. cerevisiae deletion strains, growth OD, locus YLR102C, strain apc9, active compounds read low
Hit rate of the full screen: of about 5,500 compounds, about 2,000 (36%) were called active. Roughly 18% stayed inconclusive and do not appear here. This is one part of the list.
For each record, check the reported normalized growth: if it is below 1 write t, else write f.

- compound: "CC(=O)Oc1cc2c(c(C)c1OC(C)=O)CC1OC13C2(C)CCC1(C)C2CC(C)(C(=O)O)CCC2(C)CCC13C (centres undefined)"
  answer label: "f"
- compound: "O=c1[nH]cnc2c1ncn2C1O[C@H](CO)[C@@H](O)[C@H]1O (some centres undefined)"
  answer label: "f"
- compound: "CC(=O)Oc1cccc2c1C(=O)c1c(OC(C)=O)cc(C(=O)O)cc1C2=O"
  answer label: "t"
